tested on: parental wild-type Ba/F3 cells; test: Ba/F3 (WT) cell proliferation assay (Alamar Blue); assay type: cell-based; conditions: Mus musculus, BaF3; 72 hours, Alamar Blue; read-out: BaF3 WT prolif
Structures can show the parent of a compound that is named as a salt.
For each record, write down the corresponding IC50.
One number for each entry, in nM.

Recorded IC50, per entry:
CNC(=O)C(C)(C)n1cc(-c2ccn3c(-c4cccc(NC(=O)NCC(F)(F)F)c4)cnc3c2)cn1
4600
CN1CCCC(n2cc(-c3ccn4c(-c5cccc(NC(=O)NCC(F)(F)F)c5)cnc4c3)cn2)C1 (stereo not drawn) [Example 38, hydrochloride]
440
Cc1nc2cc(-c3ccn4c(-c5cccc(NC(=O)NCC(F)(F)F)c5)cnc4c3)ccc2s1
3500
O=C(NCC(F)(F)F)Nc1cccc(-c2cnc3cc(-c4ccc(CCO)cn4)ccn23)c1
2400
Nc1cc(-c2ccn3c(-c4cccc(NC(=O)NCC(F)(F)F)c4)cnc3c2)ncc1C(F)(F)F
6400

Now for another entry.
Memo: CC(C)c1nccc(-c2ccn3c(-c4cccc(NC(=O)NCC(F)(F)F)c4)cnc3c2)n1 , reported IC50: 14.9

* * *

system: LP-1 cell line (FGF-1/Heparin induced pERK); experiment: Cell-based pERK ELISA, LP-1 cells; settings: Homo sapiens, LP-1, read-out: LP-1 pERK ELISA (μM)
Structures can show the parent of a compound that is named as a salt.
// classify: if (IC50 < 0.03 µM) Y else N

Worked set:
O=C(NCC(F)(F)F)Nc1cccc(-c2cnc3cc(-c4cnn(C5CCCNC5)c4)ccn23)c1 (stereo not shown) [Example 40, formate]
N
O=C(NCC(F)(F)F)Nc1cccc(-c2cnc3cc(-c4ccc(F)cn4)ccn23)c1 [Example 96, bis-hydrochloride]
Y
COc1cnc(-c2ccn3c(-c4cccc(NC(=O)NCC(F)(F)F)c4)cnc3c2)nc1 [Example 138]
N
O=C(NCC(F)(F)F)Nc1cccc(-c2cnc3cc(-c4cnn(C5CCOC5)c4)ccn23)c1 (stereo not shown) [Example 47, hydrochloride]
Y
Cc1nccn1-c1ccn2c(-c3cccc(NC(=O)NCC(F)(F)F)c3)cnc2c1 [Example 116]
N
O=C(NCC(F)(F)F)Nc1cccc(-c2cnc3cc(-c4ccc(CO)cn4)ccn23)c1 [Example 92, formate]
N

Query: Lab note: IC50 threshold 0.03 µM. Does this compound come in strictly under it? COc1cc(-c2ccn3c(-c4cccc(NC(=O)NCC(F)(F)F)c4)cnc3c2)ncn1 [Example 183]
Result: Y

* * *

test system: parental wild-type Ba/F3 cells; assay: Ba/F3 (WT) cell proliferation assay (Alamar Blue); type: cell-based; conditions: Mus musculus, BaF3, 72 h, read-out: BaF3 WT prolif (μM)
Counter-ions that a name gives are not always drawn.
readout.type: IC50
Could you give the number and then its unit, please?

Recorded IC50, per entry:
Cc1ccnc(-c2ccn3c(-c4cccc(NC(=O)NCC(F)(F)F)c4)cnc3c2)c1 [Example 97, bis-hydrochloride]
0.44 µM
O=C(NCC(F)(F)F)Nc1cncc(-c2cnc3cc(-c4cnn(C5CNC5)c4)ccn23)c1 [Example 123, formate]
8.9 µM
O=C(NCC(F)(F)F)Nc1cccc(-c2cnc3cc(-c4ccc(F)cn4)ccn23)c1 [Example 96, bis-hydrochloride]
1.7 µM

// each compound listed below needs its IC50
1. CC(O)C#Cc1ccn2c(-c3cccc(NC(=O)NCC(F)(F)F)c3)cnc2c1 (stereo not shown) [Example 18, formate]
2. O=C(NCC(F)(F)F)Nc1cccc(-c2cnc3cc(-c4cncnc4)ccn23)c1 [Example 42, hydrochloride]
3. CN(C)c1ccnc(-c2ccn3c(-c4cccc(NC(=O)NCC(F)(F)F)c4)cnc3c2)n1 [Example 120, hydrochloride]
4. Cc1cnc(-c2ccn3c(-c4cccc(NC(=O)NCC(F)(F)F)c4)cnc3c2)nc1 [Example 58, hydrochloride]
5. Cc1nnc(-c2ccn3c(-c4cccc(NC(=O)NCC(F)(F)F)c4)cnc3c2)nc1C [Example 118, hydrochloride]
6. Cc1cccnc1-c1ccn2c(-c3cccc(NC(=O)NCC(F)(F)F)c3)cnc2c1 [Example 104, formate]

Result:
1: 1.4 µM; 2: 1.1 µM; 3: 1.1 µM; 4: 0.7 µM; 5: 0.88 µM; 6: 0.4 µM

* * *

tested on: LP-1 cell line (FGF-1/Heparin induced pERK); experiment: Cell-based pERK ELISA, LP-1 cells; conditions: Homo sapiens, LP-1, read-out: LP-1 pERK ELISA (μM)
Where a name gives a salt, the structure may show the parent alone.
readout.type: IC50 (µM)
Answers are plain numbers, in µM.

CN1CCCC(n2cc(-c3ccn4c(-c5cccc(NC(=O)NCC(F)(F)F)c5)cnc4c3)cn2)C1 (stereo not shown) [Example 38, hydrochloride]
0.0086
CN(C)CCCOc1ccc(-c2ccn3c(-c4cccc(NC(=O)NCC(F)(F)F)c4)cnc3c2)cn1 [Example 144]
0.13

// each molecule listed below needs its IC50
1. CN1CCC(Nc2ccc(-c3ccn4c(-c5cccc(NC(=O)NCC(F)(F)F)c5)cnc4c3)nn2)CC1 [Example 76, tri-hydrochloride]
2. Cn1cncc1C#Cc1ccn2c(-c3cccc(NC(=O)NC4CC4)c3)cnc2c1 [Compound 329]
3. COc1cnc(-c2ccn3c(-c4cccc(NC(=O)NCC(F)(F)F)c4)cnc3c2)cn1 [Example 89]
4. CC(=O)N1CCC(n2cc(-c3ccn4c(-c5cccc(NC(=O)NCC(F)(F)F)c5)cnc4c3)cn2)CC1 [Example 63, formate]
5. Nc1nc(-c2ccn3c(-c4cccc(NC(=O)NCC(F)(F)F)c4)cnc3c2)ncc1F [Example 102, hydrochloride]
6. O=C(NCC(F)(F)F)Nc1cccc(-c2cnc3cc(-c4ccc(N5CCCC(O)C5)nn4)ccn23)c1 (stereo not shown) [Example 133]
7. Cc1cnc(-c2ccn3c(-c4cccc(NC(=O)NCC(F)(F)F)c4)cnc3c2)nc1 [Example 58, hydrochloride]

Result:
1. 0.51
2. 0.23
3. 0.073
4. 0.05
5. 0.0939
6. 0.0714
7. 0.077

Query CCNC(=O)Nc1cccc(-c2cnc3cc(-c4ncc(F)c(N)n4)ccn23)c1 [Example 163] on LP-1 cell line (FGF-1/Heparin induced pERK); IC50 returned: 0.22

* * *

For each record, write down the corresponding inhibition at 1 µM.
biological target: VEGFR2 (Homo sapiens (Human), UniProt P35968); assay: VEGFR2 in vitro kinase inhibitory activity assay (TRF, Flt3 substrate); assay type: biochemical; conditions: 1 h; at 1 μM; read-out: VEGFR2 % I
Sequence (P35968 20-1356): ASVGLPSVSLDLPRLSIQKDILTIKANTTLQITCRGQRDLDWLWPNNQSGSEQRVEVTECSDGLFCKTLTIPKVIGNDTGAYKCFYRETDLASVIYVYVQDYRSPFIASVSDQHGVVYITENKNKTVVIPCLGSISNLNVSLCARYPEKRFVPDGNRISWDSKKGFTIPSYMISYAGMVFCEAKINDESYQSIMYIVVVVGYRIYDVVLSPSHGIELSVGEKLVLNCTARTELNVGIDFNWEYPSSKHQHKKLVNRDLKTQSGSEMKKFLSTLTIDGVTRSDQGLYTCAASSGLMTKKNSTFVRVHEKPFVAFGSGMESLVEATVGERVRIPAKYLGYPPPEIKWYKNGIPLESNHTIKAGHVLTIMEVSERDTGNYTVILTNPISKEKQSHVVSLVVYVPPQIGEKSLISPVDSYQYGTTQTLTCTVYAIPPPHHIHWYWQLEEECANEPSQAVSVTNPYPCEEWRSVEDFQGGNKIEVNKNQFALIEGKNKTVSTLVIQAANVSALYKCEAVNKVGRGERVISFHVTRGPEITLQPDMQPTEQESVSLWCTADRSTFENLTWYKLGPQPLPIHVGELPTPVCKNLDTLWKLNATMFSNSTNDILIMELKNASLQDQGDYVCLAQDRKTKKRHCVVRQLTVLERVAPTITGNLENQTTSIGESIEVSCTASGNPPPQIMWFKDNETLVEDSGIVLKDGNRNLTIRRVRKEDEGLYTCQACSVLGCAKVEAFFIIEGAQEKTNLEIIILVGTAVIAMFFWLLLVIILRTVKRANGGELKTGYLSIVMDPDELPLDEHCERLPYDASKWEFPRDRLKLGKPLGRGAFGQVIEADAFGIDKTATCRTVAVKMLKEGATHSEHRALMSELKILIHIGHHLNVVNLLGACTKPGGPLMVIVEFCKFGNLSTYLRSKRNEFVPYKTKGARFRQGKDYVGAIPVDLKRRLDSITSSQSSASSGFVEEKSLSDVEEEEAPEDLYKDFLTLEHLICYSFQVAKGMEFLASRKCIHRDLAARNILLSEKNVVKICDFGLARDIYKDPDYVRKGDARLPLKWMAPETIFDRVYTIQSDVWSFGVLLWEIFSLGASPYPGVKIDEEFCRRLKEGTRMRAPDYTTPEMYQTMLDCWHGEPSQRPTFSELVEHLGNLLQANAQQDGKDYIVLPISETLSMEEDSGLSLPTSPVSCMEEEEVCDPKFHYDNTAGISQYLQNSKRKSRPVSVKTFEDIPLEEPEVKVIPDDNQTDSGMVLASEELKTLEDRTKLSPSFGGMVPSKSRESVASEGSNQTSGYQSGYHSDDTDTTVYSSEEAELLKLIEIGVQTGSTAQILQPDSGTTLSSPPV

Recorded inhibition at 1 µM, per entry:
COC(=O)c1cc(NC(=O)NCC(F)(F)F)cc(-c2cnc3cc(-c4ccnc(C(F)(F)F)n4)ccn23)c1
58%
CNc1nc(-c2ccn3c(-c4cccc(NC(=O)NCC(F)(F)F)c4)cnc3c2)ncc1F
59%

Now for another entry.
Memo: Cc1cc(C)nc(-c2ccn3c(-c4cccc(NC(=O)NCC(F)(F)F)c4)cnc3c2)n1 , reported inhibition at 1 µM: 49.5%

* * *

For each record, write down the corresponding IC50.
test system: LP-1 cell line (FGF-1/Heparin induced pERK); experiment: Cell-based pERK ELISA, LP-1 cells; conditions: Homo sapiens, LP-1, read-out: LP-1 pERK ELISA (μM)
Structures can show the parent of a compound that is named as a salt.
Numbers only, in µM.

O=C(NCC(F)(F)F)Nc1cccc(-c2cnc3cc(-c4ccc(N5CCNCC5)nn4)ccn23)c1 [Example 23, trifluoroacetate]
0.63

// each molecule listed below needs its IC50
1. Cc1nccc(-c2ccn3c(-c4cccc(NC(=O)NCC(F)(F)F)c4)cnc3c2)n1 [Example 61, hydrochloride]
2. O=C(NCC(F)(F)F)Nc1cccc(-c2cnc3cc(-c4ccc(Cl)nn4)ccn23)c1
3. CNC(=O)C(C)(C)n1cc(-c2ccn3c(-c4cccc(NC(=O)NCC(F)(F)F)c4)cnc3c2)cn1
4. CCNC(=O)Nc1cccc(-c2cnc3cc(C#Cc4cncn4C)ccn23)c1
5. O=C(NCC(F)(F)F)Nc1cccc(-c2cnc3cc(C#Cc4ccsc4)ccn23)c1

Result:
[0.064, 0.057, 0.096, 0.31, 0.11]

Query CC(C)(CO)n1cc(-c2ccn3c(-c4cccc(NC(=O)NCC(F)(F)F)c4)cnc3c2)cn1 on LP-1 cell line (FGF-1/Heparin induced pERK); IC50 returned: 0.047

* * *

For each record, write down the corresponding IC50.
tested on: parental wild-type Ba/F3 cells; experiment: Ba/F3 (WT) cell proliferation assay (Alamar Blue); assay type: cell-based; conditions: Mus musculus, BaF3; 72 hours, Alamar Blue; read-out: BaF3 WT prolif
Answers are plain numbers, in nM.

Cc1cnnc(-c2ccn3c(-c4cccc(NC(=O)NCC(F)(F)F)c4)cnc3c2)n1 [Example 142]
1100
CC(C)(C)OC(=O)NC1CN(c2ccnc(-c3ccn4c(-c5cccc(NC(=O)NCC(F)(F)F)c5)cnc4c3)n2)C1 [Example 193]
1500

Now for another entry.
Memo: COc1ccc(-c2ccn3c(-c4cccc(NC(=O)NCC(F)(F)F)c4)cnc3c2)nc1 [Example 204] , reported IC50: 820
